So I've got a bunch of compounds here, and I need their plant injury at 125 g/ha values.
System: wheat (Triticum aestivum)
Assay: Test A postemergence
Type: in vivo
Settings: Triticum aestivum, post-emergence, 240 h, 125 g ai/ha, Postemergence; visual injury after approximately 10 d; 0 to 100 scale where 0 is no effect and 100 is complete control; read-out: Plant response rating, Wheat
Respond with the figure and its unit, in that order.

Missing value: plant injury at 125 g/ha, wheat (Triticum aestivum), entry CN1C[C@H](c2ccc(C(F)(F)F)cc2)[C@@H](C(=O)Nc2cccc(F)c2Br)C1=O [Compound 937] . Fill in?
20%

Item: CC(=O)Oc1ccc(NC(=O)[C@H]2C(=O)N(C)C[C@@H]2c2cc(F)cc(F)c2)c(F)c1 [Compound 996] Test system: wheat (Triticum aestivum) Read-out: plant injury at 125 g/ha Value: ?
0%

Kindly state the measured plant injury at 125 g/ha obtained for CN1CC[C@H](c2ccc(F)cc2)[C@@H](C(=O)Nc2ccccc2F)C1=O [Compound 917] with wheat (Triticum aestivum).
0%

Recall the recorded plant injury at 125 g/ha for Cc1ccc([C@H]2CN(C)C(=O)[C@@H]2C(=O)Nc2ccccc2S(C)(=O)=O)cc1Cl [Compound 1018] with wheat (Triticum aestivum) and state it.
30%

Find plant injury at 125 g/ha (wheat (Triticum aestivum)) for the entry COc1cc(OC)cc([C@H]2CN(C)C(=O)[C@@H]2C(=O)Nc2ccccc2F)c1 [Compound 980]
0%

Query plant injury at 125 g/ha on wheat (Triticum aestivum) for CCOc1cccc([C@H]2CNC(=O)[C@@H]2C(=O)Nc2ccc(F)cc2F)c1 [Compound 951]
0%

Provide the documented plant injury at 125 g/ha with wheat (Triticum aestivum) as the system for CN1CC[C@H](c2ccccc2C(F)(F)F)[C@@H](C(=O)Nc2ccccc2C(F)(F)F)C1=O [Compound 1008]
0%

I'm curious: which plant injury at 125 g/ha was measured for CN1CC[C@H](c2ccc(OC(F)(F)F)cc2)[C@@H](C(=O)Nc2ccc(F)c(F)c2F)C1=O [Compound 1000] tested on wheat (Triticum aestivum)?
0%

What is its plant injury at 125 g/ha for wheat (Triticum aestivum)? Entry: CC(C)=CC1CNC(=O)C1C(=O)Nc1ccccc1F (stereo not shown) [Compound 1011]
0%

Fill in the recorded plant injury at 125 g/ha for this compound, with wheat (Triticum aestivum) as test system: CN1C[C@H](c2cc(F)cc(F)c2)[C@@H](C(=O)Nc2ccc(O)cc2F)C1=O [Compound 985]
0%
